- TARGET OR TEST SYSTEM: PFKM 6-phosphofructokinase, muscle type (Homo sapiens)
- Construct: isoTOP-ABPP experiments performed in cell lysates (in vitro); endogenous in cells; host or cells: MDA-MB-231 soluble lysate
- Sequence (P08237 whole entry): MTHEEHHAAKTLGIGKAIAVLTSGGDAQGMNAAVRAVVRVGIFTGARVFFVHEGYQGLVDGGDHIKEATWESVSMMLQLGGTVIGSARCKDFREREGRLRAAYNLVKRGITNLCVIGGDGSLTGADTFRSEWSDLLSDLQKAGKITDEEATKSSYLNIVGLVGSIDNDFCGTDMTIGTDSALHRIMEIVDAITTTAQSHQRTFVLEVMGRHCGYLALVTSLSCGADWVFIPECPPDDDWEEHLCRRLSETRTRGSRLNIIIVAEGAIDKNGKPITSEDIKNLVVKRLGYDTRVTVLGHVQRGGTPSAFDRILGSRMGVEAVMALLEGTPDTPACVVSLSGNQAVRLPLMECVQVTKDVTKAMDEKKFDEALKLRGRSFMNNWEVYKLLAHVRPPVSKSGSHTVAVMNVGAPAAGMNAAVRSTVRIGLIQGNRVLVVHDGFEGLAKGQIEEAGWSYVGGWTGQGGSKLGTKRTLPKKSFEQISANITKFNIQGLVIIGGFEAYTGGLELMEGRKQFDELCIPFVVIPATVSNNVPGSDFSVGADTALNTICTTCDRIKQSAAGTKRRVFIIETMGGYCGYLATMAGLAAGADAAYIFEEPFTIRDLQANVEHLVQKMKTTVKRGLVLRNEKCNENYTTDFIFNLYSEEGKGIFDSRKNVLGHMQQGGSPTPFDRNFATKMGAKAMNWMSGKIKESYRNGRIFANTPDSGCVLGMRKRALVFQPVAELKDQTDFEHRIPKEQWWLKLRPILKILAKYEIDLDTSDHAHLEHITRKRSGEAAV
- PROCEDURE SUMMARY: competitive isoTOP-ABPP
- Format: binding
- CONDITION PARAMETERS: 50 uM_231_sol_in vitro
// 0 strictly below 0.9 in isoTOP-ABPP ratio, lysine P08237_K678; 1 otherwise

INSERT INTO results (molecule, label_value) VALUES
  ('O=C(CCc1ccc2c(c1)OCO2)Oc1ccc([N+](=O)[O-])cc1[N+](=O)[O-] [fragment 45]', 1),
  ('N#Cc1ccc(C(=O)Oc2ccc([N+](=O)[O-])cc2[N+](=O)[O-])cc1 [fragment 44, 2,4-Dinitrophenyl 4-cyanobenzoate]', 1),
  ('NC(=O)c1cc(C(F)(F)F)cc(C(F)(F)F)c1 [fragment 51, reference compound]', 0),
  ('O=C(ON1C(=O)CCC1=O)c1cc(C(F)(F)F)cc(C(F)(F)F)c1 [fragment 46]', 1),
  ('O=C(Oc1c(F)c(F)c(C(F)(F)F)c(F)c1F)c1cc(C(F)(F)F)cc(C(F)(F)F)c1 [fragment 47]', 0);
